- protocolSummary: AP1 Signaling Pathway (AID 357);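 note: ME-180 reporter cells stimulated with EGF at its EC50 level; % is set by controls: 0 for no effect and ±100 for the full control effect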
- recordedConditions: ME-180 (cervical carcinoma) AP-1-bla reporter, EGF-induced, beta-lactamase ratio, 5 h; at 7.69 µM (top of the series) unless noted
Inconclusive results are not listed. Active and inactive are the calls of the source. Calls come from the whole dose curve; as a rule, active = well fitted curve in either direction with a large enough effect (not every such curve was filed as active); inconclusive = small, poorly fitted or top-dose-only effect, or another doubt; inactive = flat fitted curve, though single readings scatter.
endpoint: activity change, negative = inhibition

Below, 2 compounds whose answers are already recorded.
[[record]]
compound = "Nc1ncnc2c1nc(Br)n2[C@@H]1O[C@H]2COP(=O)(O)O[C@@H]2[C@H]1O"
endpoint = "activity change, negative = inhibition"
assayresult = "-7.65% [at 38 µM] (inactive)"

[[record]]
compound = "CC(C)c1ccccc1S(=O)c1ccccc1C(C)(C)O (stereo unspecified)"
endpoint = "activity change, negative = inhibition"
assayresult = "-11.8% (inactive)"


stdin: Name the reported activity change, negative = inhibition value associated with the compound `C[C@H](CCC(=O)O)[C@H]1CC[C@@H]2[C@@H]3CC[C@H]4C[C@@H](O)CC[C@@]4(C)[C@@H]3C[C@H](O)[C@@]21C`
stdout: 4.11% (inactive)

stdin: Also, `NS(=O)(=O)c1ccc(N=Nc2ccc(O)c(C(=O)O)c2)cc1` please.
stdout: -0.844% (inactive)

stdin: Also, `N[C@@](CC(=O)O)(Cc1ccccc1)C(=O)O` please.
stdout: -6.1% (inactive)

stdin: Also, `O=S(=O)(O)c1ccc(O)c2ncccc12.O=S(=O)(O)c1ccc(O)c2ncccc12.[Zn]` please.
stdout: 6.49% (inactive)

stdin: Also, `O=c1oc2cc(N=Cc3ccc4c(c3)OCO4)ccc2c2ccccc12` please.
stdout: 7.4% (inactive)

stdin: Also, `O=C(O)/C=C\[C@H](O)c1ccc(Cl)cc1` please.
stdout: 1.29% [at 38 µM] (inactive)

stdin: Also, `COc1ccc(N(CC(=O)O)N=O)cc1` please.
stdout: 1.5% (inactive)

stdin: Also, `CN(C)c1ccc(-c2nc(N3CCNCC3)c3ccccc3n2)cc1` please.
stdout: -12.7% (inactive)

stdin: Also, `Clc1ccc(C=Nc2ccc3c(c2)Cc2ccccc2-3)c(Cl)c1` please.
stdout: 3.71% (inactive)

stdin: Also, `NC(N)=N/N=C(/c1ccccc1)c1ccc(O)cc1O` please.
stdout: -6.42% (inactive)

stdin: Also, `O=C(O)CCCN1CCCCC1` please.
stdout: 9.35% (inactive)

stdin: Also, `Nc1nc(N)c2[nH]c(CNc3ccc(C(=O)O)cc3)nc2n1` please.
stdout: -2.88% (inactive)

stdin: Also, `Cc1c(-c2nc(N)nc(C3CC3)c2C)nc(N)nc1C1CC1` please.
stdout: 2.87% (inactive)

stdin: Also, `O=C(NC1(C(=O)O)CCCC1)c1ccccc1` please.
stdout: -4.54% (inactive)

stdin: Also, `Cc1cc(C)nc(SCCc2cccc[n+]2C)n1` please.
stdout: -4.14% (inactive)

stdin: Also, `CC(C)(SCc1ccccc1)[C@H](N)C(=O)O` please.
stdout: 0.115% (inactive)

stdin: Also, `O=C1CC[C@](CCc2nc3ccccc3[nH]2)(c2ccccc2)C(=O)N1` please.
stdout: 1.26% (inactive)

stdin: Also, `c1ccc(-c2cc(-c3cc(-c4ccccn4)[nH]n3)n[nH]2)nc1` please.
stdout: 4.94% (inactive)

stdin: Also, `CSc1nc(N)c2ncn([C@@H]3O[C@@H](COP(=O)(O)OP(=O)(O)O)[C@@H](O)[C@H]3O)c2n1` please.
stdout: 22.9% [at 38 µM] (inactive)

stdin: Also, `C[C@H]1CN(S(=O)(=O)c2cccc3cnccc23)CCN1` please.
stdout: -12.4% [at 38 µM] (inactive)
